Method summary: Blood concentration (plasma pharmacokinetics after oral administration)
Format: in vivo
Condition label: female, guinea pig, guinea pigs, oral 10 mg/kg, mean (n = 2)
Recorded metric: AUC(0-inf) (µM·h)
Give bare numbers, in µM·h.

# query: AUC(0-inf) of entry `CC(C)(F)C(=O)NCc1ccc(C(F)(F)F)c(-c2nc(-c3ccc(C(F)(F)F)cn3)cc(=O)[nH]2)c1F` 62.1

###

Method summary: Blood concentration (plasma pharmacokinetics after oral administration)
Format: in vivo
Condition label: female, guinea pig, guinea pigs, oral 10 mg/kg, mean (n = 2)
Description: The compound of Example 1 and the compound disclosed in International Patent Publication WO2017/73709, Example 182 were weighed in an amount of 10 mg each for a dose of 10 mg/kg, and each compound was finely ground in an agate mortar for about 30 seconds. […] Plasma concentrations of the compounds were measured by the LC-MS/MS (liquid chromatography-tandem mass spectrometry) method.
Recorded metric: Cmax (µM)
Answers are plain numbers, in µM.

# query: Cmax of entry CC(C)(F)C(=O)NCc1ccc(C(F)(F)F)c(-c2nc(-c3ccc(C(F)(F)F)cn3)cc(=O)[nH]2)c1F [Example 1] 5.63
